conditions: in ethanol, 328.15 K
Parameter Measured: solubility (mole fraction)
Output spec: single numeric token, no unit.

Structure Smiles String | solubility (mole fraction)
c1ccc2c(c1)oc1ccccc12 | 0.283

Give solubility (mole fraction) for the following molecule: O=C1c2ccccc2-c2ccccc21
0.409

* * *

conditions: in toluene, 323.15 K
Parameter Measured: solubility (mole fraction)
Output spec: single numeric token, no unit.

Structure Smiles String | solubility (mole fraction)
c1ccc2c(c1)oc1ccccc12 | 0.514

Attention now turns to another entry.
Give solubility (mole fraction) for the following compound: O=C1c2ccccc2-c2ccccc21
0.41

* * *

details: in ethanol, 333.15 K
Parameter Measured: solubility (mole fraction)
Output spec: single numeric token, no unit.

Structure Smiles String | solubility (mole fraction)
O=C1c2ccccc2-c2ccccc21 | 0.548

Attention now turns to another entry.
Give solubility (mole fraction) for the following compound: c1ccc2c(c1)oc1ccccc12
0.334

* * *

Items are presented alongside their recorded solubility (mole fraction).
conditions: in ethanol, 313.15 K
Output spec: single numeric token, no unit.

Structure Smiles String | solubility (mole fraction)
c1ccc2c(c1)oc1ccccc12 | 0.102

Attention now turns to another entry.
Give solubility (mole fraction) for the following compound: O=C1c2ccccc2-c2ccccc21
0.144

* * *

Items are presented alongside their recorded solubility (mole fraction).
settings: in ethyl acetate, 308.15 K
Output spec: single numeric token, no unit.

Structure Smiles String | Parameter Measured | Assay Result
c1ccc2c(c1)oc1ccccc12 | solubility (mole fraction) | 0.328

Give solubility (mole fraction) for the following compound: O=C1c2ccccc2-c2ccccc21
0.284

* * *

Items are presented alongside their recorded solubility (mole fraction).
details: in tetrachloromethane, 318.15 K
Output spec: single numeric token, no unit.

Structure Smiles String | solubility (mole fraction)
O=C1c2ccccc2-c2ccccc21 | 0.403

Attention now turns to another entry.
Give solubility (mole fraction) for the following compound: c1ccc2c(c1)oc1ccccc12
0.412

* * *

conditions: in ethyl acetate, 318.15 K
Items are presented alongside their recorded solubility (mole fraction).
Output spec: single numeric token, no unit.

Structure Smiles String | solubility (mole fraction)
O=C1c2ccccc2-c2ccccc21 | 0.395

Give solubility (mole fraction) for the following compound: c1ccc2c(c1)oc1ccccc12
0.441

* * *

conditions: in tetrachloromethane, 323.15 K
Parameter Measured: solubility (mole fraction)

Structure Smiles String | Parameter Measured | Assay Result
O=C1c2ccccc2-c2ccccc21 | solubility (mole fraction) | 0.462

Attention now turns to another entry.
Give solubility (mole fraction) for the following molecule: c1ccc2c(c1)oc1ccccc12
0.491

* * *

conditions: in ethyl acetate, 283.15 K
Parameter Measured: solubility (mole fraction)
Output spec: single numeric token, no unit.

Structure Smiles String | Assay Result
O=C1c2ccccc2-c2ccccc21 | 0.123

Attention now turns to another entry.
Give solubility (mole fraction) for the following compound: c1ccc2c(c1)oc1ccccc12
0.145

* * *

conditions: in diisopropyl ether, 318.15 K
Items are presented alongside their recorded solubility (mole fraction).
Output spec: single numeric token, no unit.

Structure Smiles String | Parameter Measured | Assay Result
c1ccc2c(c1)oc1ccccc12 | solubility (mole fraction) | 0.341

Give solubility (mole fraction) for the following compound: O=C1c2ccccc2-c2ccccc21
0.137

* * *

Items are presented alongside their recorded solubility (mole fraction).
settings: in diisopropyl ether, 328.15 K
Output spec: single numeric token, no unit.

Structure Smiles String | solubility (mole fraction)
O=C1c2ccccc2-c2ccccc21 | 0.228

Attention now turns to another entry.
Give solubility (mole fraction) for the following compound: c1ccc2c(c1)oc1ccccc12
0.508

Cited source for all entries: BigSolDB 2.1
